test system: 6C3HED lymphosarcoma; assay: in vivo activity against 6C3HED lymphosarcoma (Gardner lymphosarcoma, GLS) transplanted in C3H mice, oral; conditions: Mus musculus, 6C3HED, po, 192 h, read-out: % Tumor Inhibition
inhibition in vivo at 300 mg/kg for assorted molecules
Measurement Kind: inhibition in vivo at 300 mg/kg (%)

[[record]]
smiles_code = "CN(C)c1c(Cl)cc(S(=O)(=O)NC(=O)Nc2ccc(Cl)cc2)cc1Cl"
number = 93

[[record]]
smiles_code = "COc1c(C)cc(S(=O)(=O)NC(=O)Nc2ccc(Cl)cc2)cc1C"
number = 87

[[record]]
smiles_code = "COc1cc(S(=O)(=O)NC(=O)Nc2ccc(Cl)cc2)cc(OC)c1OC"
number = 35

[[record]]
smiles_code = "Cc1cc(S(=O)(=O)NC(=O)Nc2ccc(Cl)cc2)cc(C)c1Cl"
number = 84

[[record]]
smiles_code = "Cc1cc(S(=O)(=O)NC(=O)Nc2ccc(Cl)cc2)cc(C)c1C"
number = 100

[[record]]
smiles_code = "Cc1cc(S(=O)(=O)NC(=O)Nc2ccc(Cl)c(Cl)c2)cc(C)c1C"
number = 74

[[record]]
smiles_code = "Cc1cc(S(=O)(=O)NC(=O)Nc2ccc(C(F)(F)F)cc2)cc(C)c1C"
number = 100

[[record]]
smiles_code = "Cc1cc(S(=O)(=O)NC(=O)Nc2ccc(Br)cc2)cc(C)c1C"
number = 99

[[record]]
smiles_code = "O=C(Nc1ccc(Cl)cc1)NS(=O)(=O)c1cc(Cl)c(Cl)c(Cl)c1"
number = 99

[[record]]
smiles_code = "CNc1c(Br)cc(S(=O)(=O)NC(=O)Nc2ccc(Cl)cc2)cc1Br"
number = 47


###

system: CCRF-CEM cells; experiment: in vitro cytotoxicity against CCRF-CEM cells (50% inhibition of growth); type: cell-based, human; conditions: Homo sapiens, CCRF-CEM, 72 h incubation
Measurement Kind: IC50 (µg/mL)

[[record]]
compound = "Cc1cc(S(=O)(=O)NC(=O)Nc2ccc(Br)cc2)cc(C)c1C [Example 2]"
measurement_kind = "IC50"
u = "µg/mL"
censor_symbol = ">"
number = 20

[[record]]
compound = "CN(C)c1c(Cl)cc(S(=O)(=O)NC(=O)Nc2ccc(Cl)cc2)cc1Cl [Example 14]"
measurement_kind = "IC50"
u = "µg/mL"
censor_symbol = "="
number = 17

[[record]]
compound = "COc1c(C)cc(S(=O)(=O)NC(=O)Nc2ccc(Cl)cc2)cc1C [Example 15]"
measurement_kind = "IC50"
u = "µg/mL"
censor_symbol = "="
number = 16.5

[[record]]
compound = "O=C(Nc1ccc(Cl)cc1)NS(=O)(=O)c1cc(Cl)c(Cl)c(Cl)c1 [Example 6]"
measurement_kind = "IC50"
u = "µg/mL"
censor_symbol = ">"
number = 20

[[record]]
compound = "Cc1cc(S(=O)(=O)NC(=O)Nc2ccc(Cl)cc2)cc(C)c1C [Example 1]"
measurement_kind = "IC50"
u = "µg/mL"
censor_symbol = "="
number = 14.8

[[record]]
compound = "Cc1cc(S(=O)(=O)NC(=O)Nc2ccc(C(F)(F)F)cc2)cc(C)c1C [Example 3]"
measurement_kind = "IC50"
u = "µg/mL"
censor_symbol = ">"
number = 20

[[record]]
compound = "COc1cc(S(=O)(=O)NC(=O)Nc2ccc(Cl)cc2)cc(OC)c1OC [Example 16]"
measurement_kind = "IC50"
u = "µg/mL"
censor_symbol = ">"
number = 20

[[record]]
compound = "CNc1c(Br)cc(S(=O)(=O)NC(=O)Nc2ccc(Cl)cc2)cc1Br [Example 18]"
measurement_kind = "IC50"
u = "µg/mL"
censor_symbol = "="
number = 19.3

[[record]]
compound = "Cc1cc(S(=O)(=O)NC(=O)Nc2ccc(Cl)cc2)cc(C)c1Cl [Example 12]"
measurement_kind = "IC50"
u = "µg/mL"
censor_symbol = "="
number = 15

[[record]]
compound = "Cc1cc(S(=O)(=O)NC(=O)Nc2ccc(Cl)c(Cl)c2)cc(C)c1C [Example 4]"
measurement_kind = "IC50"
u = "µg/mL"
censor_symbol = "="
number = 13.5


Data provenance: patent US5354778A
